Below, each entry is listed with its recorded protein stability index.
B1: CD69 (parent)
chain: FVAENSSLHPESGQENDATSPHFS

# Variants of: B1
# assay: protein stability index of a GFP-peptide fusion (GPS, HEK-293T) (PSI 1-6); higher = more stable;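 note: lentivirally expressed fusions sorted by FACS into six bins by GFP to DsRed ratio, PSI derived from sequencing read proportions per bin multiplied by bin number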
# condition_label: c terminus: a fixed tail appended

Solved cases (4 shown):
variant_string: E11V
protein stability index: 2.38
//
variant_string: G13Q
protein stability index: 3.09
//
variant_string: L8I
protein stability index: 3.24
//
variant_string: S12P
protein stability index: 3.39

Query :: Returns the measured protein stability index for the input variant. Input: P21G
Result :: 3.04

Query :: Same read-out for P21D ?
Result :: 3.6
